# Procedure Summary: Ex vivo biodistribution / in vivo GRPR targeting in PC-3 tumor-bearing mice
# Set-up: species or system Balb/c nu/nu mice
# Study Conditions: mouse, tumor, total radioactivity; Balb/c nu/nu mice with PC-3 xenografts, 1 h pi, 40 pmol / 30 kBq, kit stored 18 months, average ± SD, n = 4; read-out: Uptake in tumor, non-blocked
Where a SMILES comes first, the peptide text is derived from it. [ ]: non-standard residue; d: D form. The star is where a group is joined. Sta = CC(C)C[C@H](N)[C@@H](O)CC(=O)O; Mercaptoacetyl = O=C(CS)*; AEEA = NCCOCCOCC(=O)O
Attribute Measured: tissue uptake at 1 h (%ID/g)
Kindly answer with a numeric value in %ID/g, unit omitted.

The value of tissue uptake at 1 h measured for the molecule CC(C)C[C@H](NC(=O)C[C@H](O)[C@H](CC(C)C)NC(=O)[C@H](Cc1c[nH]cn1)NC(=O)CNC(=O)[C@@H](NC(=O)[C@H](C)NC(=O)[C@H](Cc1c[nH]c2ccccc12)NC(=O)[C@H](CCC(N)=O)NC(=O)[C@@H](Cc1ccccc1)NC(=O)COCCOCCNC(=O)[C@H](CO)NC(=O)[C@H](CO)NC(=O)[C@H](CO)NC(=O)CS)C(C)C)C(N)=O [[^99mTc]Tc-maSSS-PEG2-RM26, metal not drawn] (Mercaptoacetyl-SSS[AEEA][dF]QWAVGH[Sta]L-NH2) turned out to be 6

---

# Procedure Summary: Ex vivo biodistribution / in vivo GRPR targeting in PC-3 tumor-bearing mice
# Set-up: species or system Balb/c nu/nu mice
# Study Conditions: Balb/c nu/nu, mouse, tumor and kidneys, total radioactivity; PC-3 xenografts, 1 h pi, 40 pmol, ± SD, n = 4; read-out: Tumor-to-kidneys ratio, non-blocked group
Where a SMILES comes first, the peptide text is derived from it. [ ]: non-standard residue; d: D form. The star is where a group is joined. Sta = CC(C)C[C@H](N)[C@@H](O)CC(=O)O; Mercaptoacetyl = O=C(CS)*; AEEA = NCCOCCOCC(=O)O
Attribute Measured: tissue to tissue ratio at 1 h
The answer should be a number; do not append a unit.

Documented tissue to tissue ratio at 1 h of CC(C)C[C@H](NC(=O)C[C@H](O)[C@H](CC(C)C)NC(=O)[C@H](Cc1c[nH]cn1)NC(=O)CNC(=O)[C@@H](NC(=O)[C@H](C)NC(=O)[C@H](Cc1c[nH]c2ccccc12)NC(=O)[C@H](CCC(N)=O)NC(=O)[C@@H](Cc1ccccc1)NC(=O)COCCOCCNC(=O)[C@H](CO)NC(=O)[C@H](CO)NC(=O)[C@H](CO)NC(=O)CS)C(C)C)C(N)=O [[^99mTc]Tc-maSSS-PEG2-RM26, metal not drawn] (Mercaptoacetyl-SSS[AEEA][dF]QWAVGH[Sta]L-NH2) : 1.3

---

# Procedure Summary: Ex vivo biodistribution / in vivo GRPR targeting in PC-3 tumor-bearing mice
# Design: species or system Balb/c nu/nu mice
# Study Conditions: Balb/c nu/nu, mouse, kidneys, total radioactivity; PC-3 xenografts, 1 h pi, 40 pmol / 30 kBq co-injected with 5 nmol NOTA-PEG2-RM26, average ± SD, n = 4; read-out: Uptake in kidneys, blocked
Where a SMILES comes first, the peptide text is derived from it. [ ]: non-standard residue; d: D form. The star is where a group is joined. Sta = CC(C)C[C@H](N)[C@@H](O)CC(=O)O; Mercaptoacetyl = O=C(CS)*; AEEA = NCCOCCOCC(=O)O
Attribute Measured: tissue uptake at 1 h (%ID/g)
Field format: number, assumed %ID/g, no unit text.

Note to self: tissue uptake at 1 h recorded for CC(C)C[C@H](NC(=O)C[C@H](O)[C@H](CC(C)C)NC(=O)[C@H](Cc1c[nH]cn1)NC(=O)CNC(=O)[C@@H](NC(=O)[C@H](C)NC(=O)[C@H](Cc1c[nH]c2ccccc12)NC(=O)[C@H](CCC(N)=O)NC(=O)[C@@H](Cc1ccccc1)NC(=O)COCCOCCNC(=O)[C@H](CO)NC(=O)[C@H](CO)NC(=O)[C@H](CO)NC(=O)CS)C(C)C)C(N)=O [[^99mTc]Tc-maSSS-PEG2-RM26, metal not drawn] (Mercaptoacetyl-SSS[AEEA][dF]QWAVGH[Sta]L-NH2) was 5

---

# Procedure Summary: Ex vivo biodistribution / in vivo GRPR targeting in PC-3 tumor-bearing mice
# Design: species or system Balb/c nu/nu mice
# Study Conditions: Balb/c nu/nu, mouse, spleen, total radioactivity; PC-3 xenografts, 1 h pi, 40 pmol / 30 kBq co-injected with 5 nmol NOTA-PEG2-RM26, average ± SD, n = 4; read-out: Uptake in spleen, blocked
Where a SMILES comes first, the peptide text is derived from it. [ ]: non-standard residue; d: D form. The star is where a group is joined. Sta = CC(C)C[C@H](N)[C@@H](O)CC(=O)O; Mercaptoacetyl = O=C(CS)*; AEEA = NCCOCCOCC(=O)O
Attribute Measured: tissue uptake at 1 h (%ID/g)
Report as a plain number; the unit %ID/g is understood.

// tissue uptake at 1 h lookup, molecule = CC(C)C[C@H](NC(=O)C[C@H](O)[C@H](CC(C)C)NC(=O)[C@H](Cc1c[nH]cn1)NC(=O)CNC(=O)[C@@H](NC(=O)[C@H](C)NC(=O)[C@H](Cc1c[nH]c2ccccc12)NC(=O)[C@H](CCC(N)=O)NC(=O)[C@@H](Cc1ccccc1)NC(=O)COCCOCCNC(=O)[C@H](CO)NC(=O)[C@H](CO)NC(=O)[C@H](CO)NC(=O)CS)C(C)C)C(N)=O [[^99mTc]Tc-maSSS-PEG2-RM26, metal not drawn] (Mercaptoacetyl-SSS[AEEA][dF]QWAVGH[Sta]L-NH2) , result: 0.13

---

# Procedure Summary: Ex vivo biodistribution / in vivo GRPR targeting in PC-3 tumor-bearing mice
# Set-up: species or system Balb/c nu/nu mice
# Study Conditions: mouse, liver, total radioactivity; Balb/c nu/nu mice with PC-3 xenografts, 1 h pi, 40 pmol / 30 kBq, kit stored 18 months, average ± SD, n = 4; read-out: Uptake in liver, non-blocked
Where a SMILES comes first, the peptide text is derived from it. [ ]: non-standard residue; d: D form. The star is where a group is joined. Sta = CC(C)C[C@H](N)[C@@H](O)CC(=O)O; Mercaptoacetyl = O=C(CS)*; AEEA = NCCOCCOCC(=O)O
Attribute Measured: tissue uptake at 1 h (%ID/g)
Report as a plain number; the unit %ID/g is understood.

Record CC(C)C[C@H](NC(=O)C[C@H](O)[C@H](CC(C)C)NC(=O)[C@H](Cc1c[nH]cn1)NC(=O)CNC(=O)[C@@H](NC(=O)[C@H](C)NC(=O)[C@H](Cc1c[nH]c2ccccc12)NC(=O)[C@H](CCC(N)=O)NC(=O)[C@@H](Cc1ccccc1)NC(=O)COCCOCCNC(=O)[C@H](CO)NC(=O)[C@H](CO)NC(=O)[C@H](CO)NC(=O)CS)C(C)C)C(N)=O [[^99mTc]Tc-maSSS-PEG2-RM26, metal not drawn] (Mercaptoacetyl-SSS[AEEA][dF]QWAVGH[Sta]L-NH2) , field tissue uptake at 1 h: 2.9

---

# Procedure Summary: Ex vivo biodistribution / in vivo GRPR targeting in PC-3 tumor-bearing mice
# Design: species or system Balb/c nu/nu mice
# Study Conditions: Balb/c nu/nu, mouse, tumor and blood, total radioactivity; PC-3 xenografts, 1 h pi, 40 pmol, ± SD, n = 4; read-out: Tumor-to-blood ratio, non-blocked group
Where a SMILES comes first, the peptide text is derived from it. [ ]: non-standard residue; d: D form. The star is where a group is joined. Sta = CC(C)C[C@H](N)[C@@H](O)CC(=O)O; Mercaptoacetyl = O=C(CS)*; AEEA = NCCOCCOCC(=O)O
Attribute Measured: tissue to tissue ratio at 1 h
Lab note: record just the number, no unit beside it.

Entry CC(C)C[C@H](NC(=O)C[C@H](O)[C@H](CC(C)C)NC(=O)[C@H](Cc1c[nH]cn1)NC(=O)CNC(=O)[C@@H](NC(=O)[C@H](C)NC(=O)[C@H](Cc1c[nH]c2ccccc12)NC(=O)[C@H](CCC(N)=O)NC(=O)[C@@H](Cc1ccccc1)NC(=O)COCCOCCNC(=O)[C@H](CO)NC(=O)[C@H](CO)NC(=O)[C@H](CO)NC(=O)CS)C(C)C)C(N)=O [[^99mTc]Tc-maSSS-PEG2-RM26, metal not drawn] (Mercaptoacetyl-SSS[AEEA][dF]QWAVGH[Sta]L-NH2) , tissue to tissue ratio at 1 h reported as 30
